Consider the following molecules; for each one, report its cytotoxicity at 24 h.
- assayInfo: Cytotoxicity against human HepG2 cells harboring AhR assessed as reduction in cell viability at > 5 uM measured for 24 hrs by MTT assay relative to control
- Assay type: cell-based
- cond: read-out: INH
Write the answer as a number in %, unit excluded.

Recorded cytotoxicity at 24 h of CC(=O)Oc1ccc(C(c2ccc(C(C)(C)C)cc2)c2ccccn2)cc1 (centres undefined) , please.
50

Recorded cytotoxicity at 24 h of CC(=O)Oc1ccc(C(c2ccc(C(C)(C)C)cc2)c2cccc[n+]2[O-])cc1 (centres undefined) , please.
50

Recorded cytotoxicity at 24 h of CC(=O)Oc1ccc(C(c2ccc(C(F)(F)F)cc2)c2ccccn2)cc1 (centres undefined) , please.
50

====

- measuredOn: Aryl hydrocarbon receptor (Homo sapiens)
- cond: HepG2, human, 24 h, read-out: RUmax
- Description: Agonist activity at AhR in human HepG2 cells co-transfected with pSELECT-zeo-Lucia and CYP1A1 assessed as induction of receptor transactivation at 1 uM incubated for 24 hrs by luciferase reporter gene assay relative to control
Consider the following compounds; for each one, report its activity at 1 µM.
Returns: string containing the numeric result and its unit.

Recorded activity at 1 µM of CC(=O)Oc1ccc(C(c2ccc(C(C)(C)C)cc2)c2ccccn2)cc1 (centres undefined) , please.
5.32%

Recorded activity at 1 µM of CC(C)(C)c1ccc(C(c2ccc(O)cc2)c2ccccn2)cc1 (centres undefined) , please.
6.89%

Recorded activity at 1 µM of CC(=O)Oc1ccc(C(c2ccc(C(F)(F)F)cc2)c2ccccn2)cc1 (centres undefined) , please.
7.71%

Recorded activity at 1 µM of CC(=O)Oc1ccc(C(c2ccc(C(C)(C)C)cc2)c2cccc[n+]2[O-])cc1 (centres undefined) , please.
6.1%

====

- measuredOn: Aryl hydrocarbon receptor (Homo sapiens, UniProt P35869)
- cond: HepG2, human, 24 h, read-out: RUmax
- Description: Antagonist activity at AhR in human HepG2 cells co-transfected with pSELECT-zeo-Lucia and CYP1A1 assessed as inhibition of FICZ-induced receptor transactivation at 1 uM incubated for 24 hrs by luciferase reporter gene assay relative to control
quantityName: inhibition at 1 µM (%)
Write the answer as a number in %, unit excluded.

Recorded inhibition at 1 µM of CC(=O)Oc1ccc(C(c2ccc(C(F)(F)F)cc2)c2ccccn2)cc1 (centres undefined) , please.
117

Recorded inhibition at 1 µM of CC(=O)Oc1ccc(C(c2ccc(C(C)(C)C)cc2)c2cccc[n+]2[O-])cc1 (centres undefined) , please.
120

Recorded inhibition at 1 µM of CC(C)(C)c1ccc(C(c2ccc(O)cc2)c2ccccn2)cc1 (centres undefined) , please.
113

Recorded inhibition at 1 µM of CC(=O)Oc1ccc(C(c2ccc(C(C)(C)C)cc2)c2ccccn2)cc1 (centres undefined) , please.
113

====

Consider the following compounds; for each one, report its inhibition at 10 µM.
- measuredOn: UniProt:P35869
- cond: HepG2, human, 24 h, read-out: RUmax
- Description: Antagonist activity at AhR in human HepG2 cells co-transfected with pSELECT-zeo-Lucia and CYP1A1 assessed as inhibition of FICZ-induced receptor transactivation at 10 uM incubated for 24 hrs by luciferase reporter gene assay relative to control
Write the answer as a number in %, unit excluded.

Recorded inhibition at 10 µM of CC(=O)Oc1ccc(C(c2ccc(Br)cc2)c2cccc[n+]2[O-])cc1 (stereo unspecified) , please.
106

Recorded inhibition at 10 µM of CC(=O)Oc1ccc(C(c2ccc(F)cc2)c2cccc[n+]2[O-])cc1 (stereo unspecified) , please.
92.4

Recorded inhibition at 10 µM of CC(=O)Oc1ccc(C(c2ccc(Cl)cc2)c2cccc[n+]2[O-])cc1 (stereo unspecified) , please.
78.8

Recorded inhibition at 10 µM of Cc1ccc(C(c2ccccn2)c2ccccc2O)cc1 (stereo unspecified) , please.
114

Recorded inhibition at 10 µM of CC(=O)Oc1ccc(C(c2ccc(C)cc2)c2cccc[n+]2[O-])cc1 (stereo unspecified) , please.
93.3

Recorded inhibition at 10 µM of CC(=O)Oc1ccc(C(c2ccc(Br)cc2)c2ccccn2)cc1 (stereo unspecified) , please.
143

Recorded inhibition at 10 µM of Oc1ccccc1C(c1ccc(F)cc1)c1ccccn1 (stereo unspecified) , please.
112

Recorded inhibition at 10 µM of Oc1ccccc1C(c1ccc(Br)cc1)c1ccccn1 (stereo unspecified) , please.
117

Recorded inhibition at 10 µM of Cc1ccc(C(c2ccc(O)cc2)c2ccccn2)cc1 (stereo unspecified) , please.
139

Recorded inhibition at 10 µM of "CC(=O)Oc1ccc(C(c2ccc(OC(C)=O)cc2)c2ccccn2)cc1" , please.
107

Recorded inhibition at 10 µM of COc1ccc(C(c2ccccn2)c2cccs2)cc1 (stereo unspecified) , please.
137

Recorded inhibition at 10 µM of CC(=O)Oc1ccc(C(c2ccccn2)c2c(OC(C)=O)ccc3ccccc23)cc1 (stereo unspecified) , please.
144

Recorded inhibition at 10 µM of CC(=O)Oc1ccc(C(c2ccccn2)n2nnc3ccccc32)cc1 (stereo unspecified) , please.
142

Recorded inhibition at 10 µM of Oc1ccccc1C(c1ccc(Cl)cc1)c1ccccn1 (stereo unspecified) , please.
115

Recorded inhibition at 10 µM of CC(=O)Oc1ccc(C(c2ccc(F)cc2)c2ccccn2)cc1 (stereo unspecified) , please.
118

Recorded inhibition at 10 µM of CC(=O)Oc1ccc(C(c2ccc(Cl)cc2)c2ccccn2)cc1 (stereo unspecified) , please.
128

====

- measuredOn: Aryl hydrocarbon receptor (Homo sapiens, UniProt P35869)
- Sequence (P35869 whole entry): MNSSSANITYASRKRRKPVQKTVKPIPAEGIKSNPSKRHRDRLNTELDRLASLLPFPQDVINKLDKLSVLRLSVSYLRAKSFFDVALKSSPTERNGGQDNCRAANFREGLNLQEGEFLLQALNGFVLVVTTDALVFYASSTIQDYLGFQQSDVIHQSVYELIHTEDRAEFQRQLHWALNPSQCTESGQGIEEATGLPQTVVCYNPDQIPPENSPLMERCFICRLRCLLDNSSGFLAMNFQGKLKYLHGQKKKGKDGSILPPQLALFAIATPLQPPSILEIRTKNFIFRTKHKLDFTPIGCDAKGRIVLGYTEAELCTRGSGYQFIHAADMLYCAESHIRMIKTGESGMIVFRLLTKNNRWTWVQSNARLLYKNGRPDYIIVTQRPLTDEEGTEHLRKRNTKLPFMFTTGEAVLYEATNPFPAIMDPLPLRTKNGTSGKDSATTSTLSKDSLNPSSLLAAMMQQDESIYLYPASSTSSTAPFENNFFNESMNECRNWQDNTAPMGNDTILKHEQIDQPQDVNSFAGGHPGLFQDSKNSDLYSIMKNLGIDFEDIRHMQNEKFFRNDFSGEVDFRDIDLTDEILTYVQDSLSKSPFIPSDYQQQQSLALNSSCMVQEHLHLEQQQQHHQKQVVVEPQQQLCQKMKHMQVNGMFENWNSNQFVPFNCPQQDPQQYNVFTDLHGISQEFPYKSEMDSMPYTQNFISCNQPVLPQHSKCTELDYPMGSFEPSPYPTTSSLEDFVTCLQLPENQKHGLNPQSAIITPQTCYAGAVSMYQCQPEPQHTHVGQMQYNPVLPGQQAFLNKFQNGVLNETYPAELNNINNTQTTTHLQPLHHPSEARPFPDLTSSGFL
- assayInfo: Antagonist activity at AhR in human HepG2 cells assessed as inhibition of FICZ-induced AhR transcriptional activity incubated for 24 hrs by Quanti-Luc reagent based luminescence assay
quantityName: pIC50
Please note pIC50 is a logarithmic value: minus log10 of concentration in mol/L. Answer with that number alone.

Recorded pIC50 of "Cc1ccccc1/N=N/c1ccc(NC(=O)c2ccnn2C)c(C)c1" , please.
5.61

====

Consider the following compounds; for each one, report its activity at 10 µM.
- measuredOn: UniProt P35869
- Sequence (P35869 whole entry): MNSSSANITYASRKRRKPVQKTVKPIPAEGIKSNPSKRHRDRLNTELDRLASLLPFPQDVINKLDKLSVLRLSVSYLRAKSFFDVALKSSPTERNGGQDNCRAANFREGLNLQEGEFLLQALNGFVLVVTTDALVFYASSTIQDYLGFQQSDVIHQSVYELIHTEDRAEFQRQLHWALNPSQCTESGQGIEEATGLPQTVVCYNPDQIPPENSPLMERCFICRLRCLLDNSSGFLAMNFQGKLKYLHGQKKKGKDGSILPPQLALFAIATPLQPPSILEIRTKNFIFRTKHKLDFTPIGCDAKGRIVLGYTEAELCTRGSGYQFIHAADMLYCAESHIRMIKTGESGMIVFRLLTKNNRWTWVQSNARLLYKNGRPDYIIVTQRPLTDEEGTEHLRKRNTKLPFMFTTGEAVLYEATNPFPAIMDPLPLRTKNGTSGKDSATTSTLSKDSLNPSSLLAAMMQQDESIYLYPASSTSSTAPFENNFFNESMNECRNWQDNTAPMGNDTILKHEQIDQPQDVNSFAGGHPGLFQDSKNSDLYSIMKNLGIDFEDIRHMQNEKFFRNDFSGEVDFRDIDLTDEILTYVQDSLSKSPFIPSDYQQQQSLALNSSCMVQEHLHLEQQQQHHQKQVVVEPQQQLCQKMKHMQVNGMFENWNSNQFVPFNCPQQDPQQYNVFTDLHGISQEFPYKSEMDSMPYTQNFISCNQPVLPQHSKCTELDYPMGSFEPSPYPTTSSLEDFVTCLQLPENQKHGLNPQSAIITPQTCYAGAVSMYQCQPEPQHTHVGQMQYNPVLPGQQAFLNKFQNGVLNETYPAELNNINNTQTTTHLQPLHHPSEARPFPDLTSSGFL
- cond: HepG2, human, 24 h, read-out: RUmax
- Description: Agonist activity at AhR in human HepG2 cells co-transfected with pSELECT-zeo-Lucia and CYP1A1 assessed as induction of receptor transactivation at 10 uM incubated for 24 hrs by luciferase reporter gene assay relative to control

Give the reported activity at 10 µM for Oc1ccccc1C(c1ccc(Br)cc1)c1ccccn1 (stereo unspecified) (system: UniProt P35869).
7.99%

Give the reported activity at 10 µM for Oc1ccc(C(c2ccc(Cl)cc2)c2ccccn2)cc1 (stereo unspecified) (system: UniProt P35869).
6.59%

Give the reported activity at 10 µM for Oc1ccccc1C(c1ccc(Cl)cc1)c1ccccn1 (stereo unspecified) (system: UniProt P35869).
7.18%

Give the reported activity at 10 µM for COc1ccc(C(c2ccccn2)n2nnc3ccccc32)cc1 (stereo unspecified) (system: UniProt P35869).
8.86%

Give the reported activity at 10 µM for COc1ccc(C(O)(c2ccc(C(F)(F)F)cc2)c2ccccn2)cc1 (stereo unspecified) (system: UniProt P35869).
26.6%

Give the reported activity at 10 µM for CC(C)(C)c1ccc(C(c2ccccn2)c2ccccc2O)cc1 (stereo unspecified) (system: UniProt P35869).
6.81%
